FYI, the data here is from patent US20060069132A1.

system: soybean; assay: Test C pre-/postemergence herbicide test; assay type: in vivo, Glycine max; details: 125 g ai/ha; scale 0 (no effect) to 100 (complete control); visual, 12 to 14 days; preemergence
Source text: […]
Observed property: Plant response rating, Soybean
Reply: number alone, nothing else.

Known Plant response rating, Soybean results, listed for orientation:
[[record]]
structure_smiles_string = "CCNC(=O)c1cccc(NC(=O)c2sc(C(C)(C)C)nc2C)c1"
recorded_value = 0

[[record]]
structure_smiles_string = "C#CCNC(=O)c1cccc(NC(=O)c2cc(C(C)(C)C)nn2CC)c1"
recorded_value = 0

[[record]]
structure_smiles_string = "CCNC(=O)c1cccc(NC(=O)c2sc(C(C)(C)C)nc2CC)c1"
recorded_value = 0

[[record]]
structure_smiles_string = "CCn1nc(C(C)(C)C)cc1C(=O)Nc1cccc(C(N)=O)n1"
recorded_value = 75


Next, consider the following compound.
Fill in reported Plant response rating, Soybean for this entry: CCn1nc(C(C)(C)C)cc1C(=O)Nc1cccc2c1CCN(C1CC1)C2=O 0

====

tested on: Surinam grass; test: Test B pre-/postemergence herbicide test; assay type: in vivo, Urochloa decumbens; settings: postemergence, 500 g ai/ha; visual rating, scale 0 (no effect) to 100 (complete control)
Observed property: Surinam Grass plant response rating

[[record]]
molecule = "CCC(C)c1cc(C(=O)Nc2cccc(C(C)=NO)c2)n(C)n1 (stereo not drawn)"
test_target = "Surinam grass"
recorded_value = 50

[[record]]
molecule = "CCNC(=O)c1cccc(NC(=O)c2sc(C(C)(C)C)nc2C)c1"
test_target = "Surinam grass"
recorded_value = 20


// fetch Surinam Grass plant response rating for CCn1nc(C(C)(C)C)cc1C(=O)Nc1cccc(SC(F)(F)F)c1 ; system: Surinam grass 90

====

system: cocklebur; experiment: Test B pre-/postemergence herbicide test; type: in vivo, Xanthium strumarium; conditions: 500 g ai/ha; visual rating 0-100, 0 no effect, 100 complete control; preemergence
Each entry below carries its recorded Plant response rating, Cocklebur.

[[record]]
compound = "CC(=NO)c1cc(NC(=O)c2cc(C(C)(C)C)nn2C)ccc1F [Compound 109]"
observed_property = "Plant response rating, Cocklebur"
recorded_value = 20

[[record]]
compound = "CCn1nc(C(C)(C)C)cc1C(=O)Nc1cc(C(=O)NCCOC)ccn1 [Compound 161]"
observed_property = "Plant response rating, Cocklebur"
recorded_value = 0

[[record]]
compound = "C=CCNC(=O)c1cccc(NC(=O)c2sc(C(C)(C)C)nc2CC)c1 [Compound 207]"
observed_property = "Plant response rating, Cocklebur"
recorded_value = 20

[[record]]
compound = "C=Cn1nc(C(C)(C)C)cc1C(=O)Nc1cccc(C(C)=NO)c1 [Compound 114]"
observed_property = "Plant response rating, Cocklebur"
recorded_value = 10


Next, consider the following compound.
Fill in reported Plant response rating, Cocklebur for this entry: CC(=NO)c1cccc(NC(=O)c2cc(C(C)(C)C)nn2CCF)c1 [Compound 115] 40

====

Each entry below carries its recorded Plant response rating, Crabgrass, Large.
system: large crabgrass; test: Test C pre-/postemergence herbicide test; format: in vivo, Digitaria sanguinalis; conditions: 62 g ai/ha; preemergence; scale 0 to 100
Reply: number alone, nothing else.

Known Plant response rating, Crabgrass, Large results, listed for orientation:
[[record]]
compound = "CCNC(=O)c1cccc(NC(=O)c2nn(C(C)(C)C)nc2C)c1"
test_target = "large crabgrass"
recorded_value = 98

[[record]]
compound = "CCOC(=O)c1cccc(NC(=O)c2nn(C(C)(C)CC)nc2CC)c1"
test_target = "large crabgrass"
recorded_value = 60

[[record]]
compound = "CCn1nc(C(C)(C)C)cc1C(=S)Nc1cc(C(=S)N(C)C)ccc1F"
test_target = "large crabgrass"
recorded_value = 70

[[record]]
compound = "Cc1nn(C(C)(C)C)nc1C(=O)Nc1cccc(C(=O)N2CC=CC2)c1"
test_target = "large crabgrass"
recorded_value = 95

[[record]]
compound = "CCNC(=O)c1cccc(NC(=O)c2cc(C3(C)CC3)nn2CC)c1"
test_target = "large crabgrass"
recorded_value = 100

[[record]]
compound = "C=CCNC(=O)c1cccc(NC(=O)c2sc(C(C)(C)C)nc2CC)c1"
test_target = "large crabgrass"
recorded_value = 80


// fetch Plant response rating, Crabgrass, Large for CCC1=NN(C(C)(C)C)CC1C(=O)Nc1cc(C(=O)N(C)C)ccc1F (racemic) ; system: large crabgrass 50

// fetch Plant response rating, Crabgrass, Large for CCNC(=O)c1cccc(NC(=O)c2sc(C(C)(C)C)nc2CC)n1 ; system: large crabgrass 0
